# key: entry, value: melting point

Some molecules with recorded melting point:
Please report the recorded melting point for c1cc(NC2=NCCN2)ccc1Cc1ccc(N2CCOCC2)cc1 .
177 to 179 °C

Please report the recorded melting point for Cn1c(-c2ccc(C(N)=O)cc2)cc2c(N3CCCC3)nc(N3CCCC3)nc21 .
175 to 180 °C

Please report the recorded melting point for CCOC(=O)c1c(C)nc(O)nc1O .
145 to 148 °C

Please report the recorded melting point for COC(=O)C(=O)C1=C(O)c2ccsc2SC1 .
53 to 56 °C

Please report the recorded melting point for COc1ccc(C=CC(=O)CC(=O)C=Cc2ccc(OC)c(O)c2)cc1O .
190 to 192 °C

In the following, a different molecule is considered.
Please report the recorded melting point for Cc1cc(-c2ccc(C(F)(F)F)cc2)cn2c(-c3nc(-c4cnc(N)nc4)no3)cnc12 .
302 °C
